system: LXRa:RXRa (NR concentration 270 nM, RXRa partner concentration 90 nM); assay: PBM binding z-score (relative to random genomic background probes); higher = stronger binding; sequences stand for … in GC…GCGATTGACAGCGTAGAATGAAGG
# PBM binding z-score per record follows
READOUT_NAME: PBM binding z-score

{"columns": ["SEQ", "READOUT_NAME", "RECORDED_VALUE"],
 "data": [
  ["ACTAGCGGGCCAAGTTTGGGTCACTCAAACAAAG", "PBM binding z-score", -0.183],
  ["TTACCAAGGTAAGCTGAGGTCGTTGATCCAACTC", "PBM binding z-score", 2.12],
  ["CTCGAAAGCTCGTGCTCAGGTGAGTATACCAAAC", "PBM binding z-score", -0.866]
]}
